Measured log10 IC50 by item
System: V79
Test: Antiproliferative activity against Chinese hamster V79 cells transfected with Escherichia coli nitroreductase nfsB assessed as reduction in cell number after 72 hrs
Assay type: functional, cell-based
Conditions: Cricetulus griseus, V79, 72 h
Heads up, the numbers here are log10 of IC50 in nM units.

Use the examples below as a reference point.
[
  {
    "compound": "NP(=O)(OCc1ccc([N+](=O)[O-])cc1)N(CCBr)CCBr (stereo not given)",
    "observed value": -1.00
  },
  {
    "compound": "NC(=O)Cc1cc([N+](=O)[O-])ccc1COP(N)(=O)N(CCCl)CCCl (stereo not given)",
    "observed value": 1.70
  },
  {
    "compound": "NP(=O)(OCc1c(F)cc([N+](=O)[O-])cc1F)N(CCCl)CCCl (stereo not given)",
    "observed value": -0.10
  }
]

For NP(=O)(OCc1ccc([N+](=O)[O-])c(F)c1)N(CCCl)CCCl (stereo not given) , write its log10 IC50.
0.48

For NP(=O)(OCc1ccc([N+](=O)[O-])cc1C(F)(F)F)N(CCCl)CCCl (stereo not given) , write its log10 IC50.
0.60

For NC(=O)c1cc(COP(N)(=O)N(CCCl)CCCl)ccc1[N+](=O)[O-] (stereo not given) , write its log10 IC50.
1.48

For NP(=O)(OCc1ccc([N+](=O)[O-])cc1Cl)N(CCCl)CCCl (stereo not given) , write its log10 IC50.
0.30

For NP(=O)(OCc1ccc([N+](=O)[O-])cc1F)N(CCCl)CCCl (stereo not given) , write its log10 IC50.
-0.40

For COc1cc([N+](=O)[O-])ccc1COP(N)(=O)N(CCCl)CCCl (stereo not given) , write its log10 IC50.
-0.30

For NP(=O)(OCc1ccc([N+](=O)[O-])cc1)N(CCCl)CCCl (stereo not given) , write its log10 IC50.
-0.10
